- Test system: MOLT-4 leukemia
- METHOD_SUMMARY: NCI tumour cell line growth inhibition, 48 h
# TGI >= 30 µM gives T, anything below gives F

Would you say CCOC(=O)C1CCCCN1C(=O)OCc1ccccc1 (configuration not stated) shows TGI at minimum 30 µM? T

Would you say COc1ccc2c(CCNC(C)=O)c(C(C)=O)[nH]c2c1 shows TGI at minimum 30 µM? T

Would you say C=C1C(=O)O[C@H]2[C@H]1CC/C(COC(=O)/C=C/C(=O)NCc1ccc(Cn3c(=O)sn(-c4ccccc4)c3=O)cc1)=C\CC[C@@]1(C)O[C@@H]21 shows TGI at minimum 30 µM? F

Would you say O=C(CC1(O)C(=O)Nc2c(Cl)ccc(Cl)c21)c1ccco1 (configuration not stated) shows TGI at minimum 30 µM? T

Would you say Cc1cc(Nc2ccc(S(=O)(=O)O)cc2)c2ccccc2n1 shows TGI at minimum 30 µM? T

Would you say O=[N+]([O-])c1ccc(C2=Nn3c(nnc3-c3ccccc3)SC2)o1 shows TGI at minimum 30 µM? T

Would you say Cc1cnc(-n2c(C)nc3cc(Cl)ccc3c2=O)s1 shows TGI at minimum 30 µM? T

Would you say CN(CCCCCl)P(=O)(OCC1=CC(=O)c2ccccc2C1=O)OC[C@H]1O[C@@H](n2cc(F)c(=O)[nH]c2=O)C[C@@H]1O (some centres not stated) shows TGI at minimum 30 µM? T

Would you say COC(=O)/C=C/C1C2C3(CCC(C)C12C)OCCS3 (configuration not stated) shows TGI at minimum 30 µM? T

Would you say CNCC(=O)Nc1ccc2c(c1)C(=O)c1ccc(NC(=O)CNC)cc1C2=O shows TGI at minimum 30 µM? F

Would you say COc1ccc(O)c(/C=N/NC(=S)N2CCCCC2)c1 shows TGI at minimum 30 µM? T

Would you say C[n+]1c(-c2ccccc2)c2cc(N)ccc2c2ccccc21 shows TGI at minimum 30 µM? F

Would you say O=C1C(c2c(O)[nH]c3ccc([N+](=O)[O-])cc23)=Nc2ccccc21 shows TGI at minimum 30 µM? T

Would you say Cc1ccc(-n2c(=O)c3nn4c(=O)n(-c5ccc(C)cc5)c(=O)c4nn3c2=O)cc1 shows TGI at minimum 30 µM? T

Would you say CCC[CH2][Sn]1([CH2]CCC)[O]C(=O)c2cccc(C)c2[O]1 shows TGI at minimum 30 µM? F

Would you say COc1cc([C@@H]2c3cc4c(cc3[C@@H](Nc3ccc(N=Cc5ccc(C(=O)O[C@@H](C(=O)O[C@H]6C[C@@]7(O)[C@@H](OC(=O)c8ccccc8)[C@@H]8[C@]9(OC(C)=O)CO[C@@H]9C[C@H](O)[C@@]8(C)C(=O)[C@H](OC(C)=O)C(=C6C)C7(C)C)[C@@H](NC(=O)c6ccccc6)c6ccccc6)cc5)cc3)[C@H]3COC(=O)[C@H]23)OCO4)cc(OC)c1O shows TGI at minimum 30 µM? F

Would you say CC1(C)CN(c2cc(C(F)(F)F)cc3cncn23)CCC12NC(=O)NC2=O (configuration not stated) shows TGI at minimum 30 µM? T

Would you say ClC(Cl)(Cl)C(N1CCN(c2ccccc2)CC1)N1CCN(c2ccccc2)CC1 shows TGI at minimum 30 µM? T

Would you say c1ccc2c(c1)SC1=C(SC(=C3SC4=C(S3)Sc3ccccc3S4)S1)S2 shows TGI at minimum 30 µM? T

Would you say CC(C)(Cl)C(Br)CCC(C)(Br)C(Br)CBr (configuration not stated) shows TGI at minimum 30 µM? T

Would you say CNCCCCN(C)/[N+]([O-])=N\O shows TGI at minimum 30 µM? T
